test system: Escherichia coli TOP10; test: shrunken log2 fold change of peptide-encoding DNA abundance (4.5 h post-induction vs induction); higher = less antimicrobial activity (less host growth inhibition); conditions: time post-induction: 4.5 h; library: site-saturation at positions 5, 18, 19, 20
Rule: shrunken log2 fold change under 0.06 gives 0 (no), otherwise 1 (yes).

State whether the measured shrunken log2 fold change reaches 0.06, counting equality as reaching it, for `RRIRVRPPRLPRPRPRPVSRPRP`
1 (yes)

State whether the measured shrunken log2 fold change reaches 0.06, counting equality as reaching it, for `RRIRWRPPRLPRPRPRPYHRPRP`
0 (no)

State whether the measured shrunken log2 fold change reaches 0.06, counting equality as reaching it, for `RRIRIRPPRLPRPRPRPKRPPRP`
1 (yes)

State whether the measured shrunken log2 fold change reaches 0.06, counting equality as reaching it, for `RRIRQRPPRLPRPRPRPDCVPRP`
0 (no)

State whether the measured shrunken log2 fold change reaches 0.06, counting equality as reaching it, for `RRIRARPPRLPRPRPRPHPLPRP`
0 (no)

State whether the measured shrunken log2 fold change reaches 0.06, counting equality as reaching it, for `RRIRDRPPRLPRPRPRPRAVPRP`
1 (yes)

State whether the measured shrunken log2 fold change reaches 0.06, counting equality as reaching it, for `RRIRGRPPRLPRPRPRPNGIPRP`
1 (yes)

State whether the measured shrunken log2 fold change reaches 0.06, counting equality as reaching it, for `RRIRKRPPRLPRPRPRPAAPPRP`
1 (yes)

More entries:
State whether the measured shrunken log2 fold change reaches 0.06, counting equality as reaching it, for `RRIRMRPPRLPRPRPRPFIQPRP`
0 (no)

State whether the measured shrunken log2 fold change reaches 0.06, counting equality as reaching it, for `RRIRGRPPRLPRPRPRPIWWPRP`
1 (yes)

###

system: Escherichia coli TOP10; assay: shrunken log2 fold change of peptide-encoding DNA abundance (4.5 h post-induction vs induction); higher = less antimicrobial activity (less host growth inhibition); settings: time post-induction: 4.5 h; library: site-saturation at positions 5, 18, 19, 20
Overview of reported shrunken log2 fold change across a group of sequences:
The response must contain the number and no unit.

Previously resolved entries follow.
Recorded shrunken log2 fold change of `RRIRMRPPRLPRPRPRPMQRPRP` , please.
0.556

Recorded shrunken log2 fold change of `RRIRQRPPRLPRPRPRPTEMPRP` , please.
-0.149

Recorded shrunken log2 fold change of `RRIRMRPPRLPRPRPRPDVHPRP` , please.
0.109

Recorded shrunken log2 fold change of `RRIRLRPPRLPRPRPRPKWQPRP` , please.
-0.0304

Recorded shrunken log2 fold change of `RRIRDRPPRLPRPRPRPPYNPRP` , please.
-0.395

Recorded shrunken log2 fold change of `RRIRKRPPRLPRPRPRPQSTPRP` , please.
-0.0185

Recorded shrunken log2 fold change of `RRIRQRPPRLPRPRPRPHFDPRP` , please.
-0.000826

More entries:
Recorded shrunken log2 fold change of `RRIRRRPPRLPRPRPRPTATPRP` , please.
1.56

###

system: Escherichia coli TOP10; test: shrunken log2 fold change of peptide-encoding DNA abundance (4.5 h post-induction vs induction); higher = less antimicrobial activity (less host growth inhibition); settings: time post-induction: 4.5 h; library: site-saturation at positions 5, 18, 19, 20
Each entry belongs to exactly one class, chosen by where its shrunken log2 fold change falls: group A: < -0.07; group B: ≥ -0.07 and < 0.05; group C: ≥ 0.05

Consider the worked cases shown below.
Entry `RRIRCRPPRLPRPRPRPCQEPRP` belongs to which category?
group A

Entry `RRIRPRPPRLPRPRPRPHPQPRP` belongs to which category?
group C

Entry `RRIRSRPPRLPRPRPRPLKGPRP` belongs to which category?
group C

Entry `RRIRCRPPRLPRPRPRPRDFPRP` belongs to which category?
group B

Entry `RRIRLRPPRLPRPRPRPCRLPRP` belongs to which category?
group A

Entry `RRIRHRPPRLPRPRPRPQPLPRP` belongs to which category?
group A

Entry `RRIRPRPPRLPRPRPRPSMDPRP` belongs to which category?
group A

Entry `RRIRYRPPRLPRPRPRPKSWPRP` belongs to which category?
group B

Entry `RRIRQRPPRLPRPRPRPSGYPRP` belongs to which category?
group B

Entry `RRIRPRPPRLPRPRPRPFTHPRP` belongs to which category?
group A

More entries:
Entry `RRIRKRPPRLPRPRPRPTPTPRP` belongs to which category?
group C

Entry `RRIRGRPPRLPRPRPRPDDKPRP` belongs to which category?
group C

Entry `RRIRWRPPRLPRPRPRPNKFPRP` belongs to which category?
group A

Entry `RRIRIRPPRLPRPRPRPSEQPRP` belongs to which category?
group B

Entry `RRIRHRPPRLPRPRPRPLCMPRP` belongs to which category?
group A

Entry `RRIRDRPPRLPRPRPRPWKMPRP` belongs to which category?
group C

Entry `RRIRVRPPRLPRPRPRPPMLPRP` belongs to which category?
group B

Entry `RRIRYRPPRLPRPRPRPLWRPRP` belongs to which category?
group C

###

Overview of reported shrunken log2 fold change across a group of sequences:
tested on: Escherichia coli TOP10; assay: shrunken log2 fold change of peptide-encoding DNA abundance (4.5 h post-induction vs induction); higher = less antimicrobial activity (less host growth inhibition); settings: time post-induction: 4.5 h; library: site-saturation at positions 5, 18, 19, 20
The response must contain the number and no unit.

Previously resolved entries follow.
Recorded shrunken log2 fold change of `RRIRCRPPRLPRPRPRPEQVPRP` , please.
-0.0491

Recorded shrunken log2 fold change of `RRIRRRPPRLPRPRPRPACQPRP` , please.
0.835

Recorded shrunken log2 fold change of `RRIRRRPPRLPRPRPRPNNMPRP` , please.
-0.348

More entries:
Recorded shrunken log2 fold change of `RRIRERPPRLPRPRPRPQNMPRP` , please.
-1.05

Recorded shrunken log2 fold change of `RRIRGRPPRLPRPRPRPFWQPRP` , please.
0.467

Recorded shrunken log2 fold change of `RRIRARPPRLPRPRPRPTVYPRP` , please.
-0.00696

Recorded shrunken log2 fold change of `RRIRARPPRLPRPRPRPLSSPRP` , please.
0.2

Recorded shrunken log2 fold change of `RRIRERPPRLPRPRPRPWDVPRP` , please.
0.0649

###

test system: Escherichia coli TOP10; assay: shrunken log2 fold change of peptide-encoding DNA abundance (4.5 h post-induction vs induction); higher = less antimicrobial activity (less host growth inhibition); conditions: time post-induction: 4.5 h; library: site-saturation at positions 5, 18, 19, 20
property label: shrunken log2 fold change
The response must contain the number and no unit.

Previously resolved entries follow.
Recorded shrunken log2 fold change of `RRIRCRPPRLPRPRPRPGGSPRP` , please.
0.0334

Recorded shrunken log2 fold change of `RRIRNRPPRLPRPRPRPPVDPRP` , please.
0.36

Recorded shrunken log2 fold change of `RRIRHRPPRLPRPRPRPKTRPRP` , please.
-0.0214

Recorded shrunken log2 fold change of `RRIRHRPPRLPRPRPRPYLAPRP` , please.
-0.00514

Recorded shrunken log2 fold change of `RRIRSRPPRLPRPRPRPESGPRP` , please.
0.351

Recorded shrunken log2 fold change of `RRIRLRPPRLPRPRPRPDMFPRP` , please.
-0.218

Now take the following sequence into account.
Recorded shrunken log2 fold change of `RRIRHRPPRLPRPRPRPKESPRP` , please.
-0.069

###

test system: Escherichia coli TOP10; assay: shrunken log2 fold change of peptide-encoding DNA abundance (4.5 h post-induction vs induction); higher = less antimicrobial activity (less host growth inhibition); details: time post-induction: 4.5 h; library: site-saturation at positions 5, 18, 19, 20
property label: shrunken log2 fold change

Quick check: shrunken log2 fold change on Escherichia coli TOP10, item `RRIRIRPPRLPRPRPRPIPRPRP` ?
0.0123

Quick check: shrunken log2 fold change on Escherichia coli TOP10, item `RRIRSRPPRLPRPRPRPMKNPRP` ?
-0.145

Quick check: shrunken log2 fold change on Escherichia coli TOP10, item `RRIRCRPPRLPRPRPRPIVNPRP` ?
-0.239

Now take the following sequence into account.
Quick check: shrunken log2 fold change on Escherichia coli TOP10, item `RRIRDRPPRLPRPRPRPERSPRP` ?
0.239

###

system: Escherichia coli TOP10; test: shrunken log2 fold change of peptide-encoding DNA abundance (4.5 h post-induction vs induction); higher = less antimicrobial activity (less host growth inhibition); details: time post-induction: 4.5 h; library: site-saturation at positions 5, 18, 19, 20;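 note: peptides expressed intracellularly from a pBAD plasmid library in pooled LB shake-flask culture, induced with 0.3% L-arabinose, DNA abundance read by NGS, three biological replicates, DESeq2 with apeglm shrinkage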
Rule: shrunken log2 fold change under -0.006 gives No, otherwise Yes.

Consider the worked cases shown below.
State whether the measured shrunken log2 fold change reaches -0.006, counting equality as reaching it, for `RRIRRRPPRLPRPRPRPSVKPRP`
Yes

State whether the measured shrunken log2 fold change reaches -0.006, counting equality as reaching it, for `RRIRDRPPRLPRPRPRPHTHPRP`
No

State whether the measured shrunken log2 fold change reaches -0.006, counting equality as reaching it, for `RRIRARPPRLPRPRPRPRSQPRP`
Yes

State whether the measured shrunken log2 fold change reaches -0.006, counting equality as reaching it, for `RRIRCRPPRLPRPRPRPHYMPRP`
No

More entries:
State whether the measured shrunken log2 fold change reaches -0.006, counting equality as reaching it, for `RRIRGRPPRLPRPRPRPCVMPRP`
Yes

State whether the measured shrunken log2 fold change reaches -0.006, counting equality as reaching it, for `RRIRMRPPRLPRPRPRPIQIPRP`
No
